Listing of entries alongside the reported IC50.
Target: Vitronectin receptor αVβ3 (Homo sapiens, UniProt P05106+P06756)
Sequence (P06756 31-889 limits assumed): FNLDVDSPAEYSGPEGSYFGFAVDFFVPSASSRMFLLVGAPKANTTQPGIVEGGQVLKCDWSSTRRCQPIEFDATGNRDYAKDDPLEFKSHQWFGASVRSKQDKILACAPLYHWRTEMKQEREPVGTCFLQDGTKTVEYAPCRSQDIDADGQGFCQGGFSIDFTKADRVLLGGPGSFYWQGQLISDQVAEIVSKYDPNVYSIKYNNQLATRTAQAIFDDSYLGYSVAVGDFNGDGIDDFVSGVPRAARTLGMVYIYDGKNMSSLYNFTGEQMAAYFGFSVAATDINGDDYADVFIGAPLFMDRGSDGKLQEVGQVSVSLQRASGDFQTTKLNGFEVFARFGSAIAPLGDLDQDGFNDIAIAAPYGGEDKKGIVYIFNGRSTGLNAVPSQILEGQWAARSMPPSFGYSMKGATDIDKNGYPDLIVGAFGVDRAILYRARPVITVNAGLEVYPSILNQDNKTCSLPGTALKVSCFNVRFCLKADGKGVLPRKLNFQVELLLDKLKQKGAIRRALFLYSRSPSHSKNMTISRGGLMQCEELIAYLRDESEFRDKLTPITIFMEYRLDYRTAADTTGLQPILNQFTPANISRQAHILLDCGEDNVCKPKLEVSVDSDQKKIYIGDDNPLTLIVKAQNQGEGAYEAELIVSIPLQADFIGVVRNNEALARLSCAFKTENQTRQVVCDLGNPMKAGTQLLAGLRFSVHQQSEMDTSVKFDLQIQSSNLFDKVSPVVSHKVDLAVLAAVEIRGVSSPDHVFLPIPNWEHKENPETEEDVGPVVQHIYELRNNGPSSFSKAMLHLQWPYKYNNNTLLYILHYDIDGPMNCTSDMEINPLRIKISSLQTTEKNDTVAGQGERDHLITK
Sequence (P06756 891-1048 partner limits assumed): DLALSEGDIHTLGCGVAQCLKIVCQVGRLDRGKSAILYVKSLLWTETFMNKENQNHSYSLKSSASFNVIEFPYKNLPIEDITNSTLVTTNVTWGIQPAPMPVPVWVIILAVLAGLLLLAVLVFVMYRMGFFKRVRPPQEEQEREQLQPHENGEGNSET
Sequence (P05106 27-788): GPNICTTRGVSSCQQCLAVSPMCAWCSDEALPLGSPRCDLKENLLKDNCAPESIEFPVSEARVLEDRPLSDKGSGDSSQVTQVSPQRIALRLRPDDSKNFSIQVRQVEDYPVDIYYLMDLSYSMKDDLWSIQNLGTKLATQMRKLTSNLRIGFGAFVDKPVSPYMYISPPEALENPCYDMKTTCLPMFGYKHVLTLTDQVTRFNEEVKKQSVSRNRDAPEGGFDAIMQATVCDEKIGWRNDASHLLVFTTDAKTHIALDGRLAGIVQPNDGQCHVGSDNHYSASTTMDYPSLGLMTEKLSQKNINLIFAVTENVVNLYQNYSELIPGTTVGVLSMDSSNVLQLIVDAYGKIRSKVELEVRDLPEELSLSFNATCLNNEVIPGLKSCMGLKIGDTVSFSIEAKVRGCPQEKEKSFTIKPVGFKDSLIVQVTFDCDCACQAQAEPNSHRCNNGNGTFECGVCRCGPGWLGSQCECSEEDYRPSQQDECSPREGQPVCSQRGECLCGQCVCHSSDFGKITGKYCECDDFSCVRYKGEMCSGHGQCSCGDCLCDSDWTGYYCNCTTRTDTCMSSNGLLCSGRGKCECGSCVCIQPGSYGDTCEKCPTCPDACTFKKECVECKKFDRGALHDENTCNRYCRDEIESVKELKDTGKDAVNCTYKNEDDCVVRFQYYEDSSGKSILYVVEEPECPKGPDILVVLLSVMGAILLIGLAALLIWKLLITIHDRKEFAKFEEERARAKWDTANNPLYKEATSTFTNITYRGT
Assay: Vitronectin Receptor αVβ3 Binding Assay
Details: read-out: VnR (IC50μM)
Where a name gives a salt, the structure may show the parent alone.
The figure you give is taken to be in µM; do not add the unit.

Can you look up IC50 on Vitronectin receptor αVβ3 (Homo sapiens, UniProt P05106+P06756) for CCCCCCCCNC(=O)N[C@@H](CNC(=O)c1ccc(OCCNC(=N)N)cc1O)C(=O)O [Example 187] ?
19.5

Can you look up IC50 on Vitronectin receptor αVβ3 (Homo sapiens, UniProt P05106+P06756) for N=C(N)NCCOc1ccc(C(=O)NC[C@H](NC(=O)CC23CC4CC(CC(C4)C2)C3)C(=O)O)c(O)c1 [Example 196] ?
5.71

Can you look up IC50 on Vitronectin receptor αVβ3 (Homo sapiens, UniProt P05106+P06756) for CC(C)COC(=O)N[C@@H](CNC(=O)c1ccc(OCCNC(=O)NCc2cccnc2)cc1O)C(=O)O [Example 246] ?
1.6

Can you look up IC50 on Vitronectin receptor αVβ3 (Homo sapiens, UniProt P05106+P06756) for NC(CNC(=O)c1ccc(OCCNC2=NCCCN2)cc1O)C(=O)O (stereo not drawn) [Example 295, dihydrochloride] ?
0.0018

Can you look up IC50 on Vitronectin receptor αVβ3 (Homo sapiens, UniProt P05106+P06756) for O=C(NC[C@H](NC(=O)c1ccccc1Cl)C(=O)O)c1ccc(OCCNC2=NCCN2)cc1O [Example 131] ?
0.405

====

Listing of entries alongside the reported pIC50.
Molecular target: Vitronectin receptor αVβ3 (Homo sapiens, UniProt P05106+P06756)
Assay: Vitronectin Receptor αVβ3 Binding Assay
Conditions: read-out: VnR (IC50μM)
// pIC50 is dimensionless: -log10 of concentration (M)

smilesText | targetUnderTest | quantitativeReadout
N=C(N)NCCOc1ccc(C(=O)NC[C@H](NC(=O)Nc2ccccc2-c2ccccc2)C(=O)O)c(O)c1 | Vitronectin receptor αVβ3 (Homo sapiens, UniProt P05106+P06756) | 5.31

// returns reported pIC50 for input `CC(C)OC(=O)N[C@@H](CNC(=O)c1ccc(OCCNc2ncccn2)cc1O)C(=O)O`
4.00

// returns reported pIC50 for input `CCCCOC(=O)N[C@@H](CNC(=O)c1ccc(OCCNC2=NCCCN2)cc1O)C(=O)O`
7.16

====

Listing of entries alongside the reported pIC50.
Target: Vitronectin receptor αVβ3 (Homo sapiens, UniProt P05106+P06756)
Experiment: Vitronectin Receptor αVβ3 Binding Assay
Settings: read-out: VnR (IC50μM)
// pIC50 is dimensionless: -log10 of concentration (M)

Previously resolved entries follow.
compound | quantitativeReadout
COc1ccc(CNC(=O)NCCOc2ccc(C(=O)NC[C@H](NC(=O)OCc3ccccc3)C(=O)O)c(O)c2)cc1 | 4.90
Cc1ccccc1C(=O)N[C@@H](CNC(=O)c1ccc(OCCNC2=NCCN2)cc1O)C(=O)O | 6.02
CCOC(=O)CC(NC(=O)c1ccc(OCCNC2=NCCCN2)cc1O)c1cccnc1 (stereo not drawn) | 3.91
N=C(N)NCCOc1ccc(C(=O)NC[C@H](NC(=O)Nc2ccccc2Br)C(=O)O)c(O)c1 | 5.67
O=C(NCCOc1ccc(C(=O)NC[C@H](NC(=O)OCc2ccccc2)C(=O)O)c(O)c1)NCc1ccncc1 | 5.26

Can you look up pIC50 on Vitronectin receptor αVβ3 (Homo sapiens, UniProt P05106+P06756) for `CC(C)COC(=O)N[C@@H](CNC(=O)c1ccc(OCCNC(=O)NCc2ccccc2)cc1O)C(=O)O` ?
5.43

Can you look up pIC50 on Vitronectin receptor αVβ3 (Homo sapiens, UniProt P05106+P06756) for `CCCCCCNC(=O)N[C@@H](CNC(=O)c1ccc(OCCNC2=NCCN2)cc1O)C(=O)O` ?
6.60

Can you look up pIC50 on Vitronectin receptor αVβ3 (Homo sapiens, UniProt P05106+P06756) for `O=C(CC12CC3CC(CC(C3)C1)C2)N[C@@H](CNC(=O)c1ccc(OCCNC2=NCCN2)cc1O)C(=O)O` ?
6.13

Can you look up pIC50 on Vitronectin receptor αVβ3 (Homo sapiens, UniProt P05106+P06756) for `CCCOC(=O)N[C@@H](CNC(=O)c1ccc(OCCNC2=NCCN2)cc1O)C(=O)O` ?
7.06

Can you look up pIC50 on Vitronectin receptor αVβ3 (Homo sapiens, UniProt P05106+P06756) for `O=C(Nc1ccccc1Cl)N[C@@H](CNC(=O)c1ccc(OCCNC2=NCCCN2)cc1O)C(=O)O` ?
6.48

Can you look up pIC50 on Vitronectin receptor αVβ3 (Homo sapiens, UniProt P05106+P06756) for `C=CCOC(=O)N[C@@H](CNC(=O)c1ccc(OCCNC(=O)NCc2ccccc2)cc1O)C(=O)O` ?
5.30

Can you look up pIC50 on Vitronectin receptor αVβ3 (Homo sapiens, UniProt P05106+P06756) for `N=C(N)NCCOc1ccc(C(=O)NC[C@H](NC(=O)OCC(Cl)(Cl)Cl)C(=O)O)c(O)c1` ?
6.41

Can you look up pIC50 on Vitronectin receptor αVβ3 (Homo sapiens, UniProt P05106+P06756) for `CCCCCCCCOC(=O)N[C@@H](CNC(=O)c1ccc(OCCNC(=O)NCc2ccccc2)cc1O)C(=O)O` ?
4.77

Can you look up pIC50 on Vitronectin receptor αVβ3 (Homo sapiens, UniProt P05106+P06756) for `CCCCCCOC(=O)N[C@@H](CNC(=O)c1ccc(OCCNC(=O)NCc2ccccc2)cc1O)C(=O)O` ?
4.99

====

System: thyro-parathyroidectomized (TPTX) rats
Assay: PTH-induced hypercalcemia of thyroparathyroidectomized male rats
Type: in vivo, rat
Details: Rattus norvegicus, sc; 100 mg/kg
Procedure: Effects of test compounds on PTH-induced hypercalcemia of thyroparathyroidectomized male rats Male thyro-parathyroidectomized (TPTX) rats (Charles River) were randomly assigned to groups of 7 rats/group. […] At various intervals between 0.5 and 24 hours after dosing (usually one to three time points), blood was collected from each rat and the serum evaluated for total calcium. […]
Counter-ions that a name gives are not always drawn.
Assign true to entries whose inhibition in vivo at 100 mg/kg meets or exceeds 90%; assign false to the rest.

// known answers, use as guide
molecule | label
CCOC(=O)CC(NC(=O)c1ccc(OCCNC2=NCCCN2)cc1O)c1ccccc1 (stereo not shown) [Example 292, hydrochloride] | true
O=C(NC[C@H](NS(=O)(=O)c1ccccc1)C(=O)O)c1ccc(OCCNC2=NCCCN2)cc1O [Example 275, hydrochloride] | true
CCOC(=O)CC(NC(=O)c1ccc(OCCNC(=N)N)cc1O)c1ccccc1 (stereo not shown) [Example 279, hydrochloride] | false
O=C(O)CC(NC(=O)c1ccc(OCCNC2=NCCCN2)cc1O)c1ccccc1 (stereo not shown) | false

Does the molecule CCOC(=O)[C@H](CNC(=O)c1ccc(OCCNC2=NCCCN2)cc1O)NC(=O)OCc1ccccc1 [Example 277, hydrochloride] have recorded inhibition in vivo at 100 mg/kg that is 90% or more?
false

Does the molecule CCOC(=O)[C@H](CNC(=O)c1ccc(OCCNC2=NCCCN2)cc1O)NS(=O)(=O)c1ccccc1 [Example 276, hydrochloride] have recorded inhibition in vivo at 100 mg/kg that is 90% or more?
true

Does the molecule `O=C(NC[C@H](NS(=O)(=O)c1ccccc1)C(=O)O)c1ccc(OCCNc2ncccn2)cc1O` have recorded inhibition in vivo at 100 mg/kg that is 90% or more?
false

====

Target: Vitronectin receptor αVβ3 (Homo sapiens, UniProt P05106+P06756)
Test: Vitronectin Receptor αVβ3 Binding Assay
Settings: read-out: VnR (IC50μM)
pIC50: −log10 of the molar value. Counter-ions that a name gives are not always drawn.
Assign Y to entries whose pIC50 meets or exceeds 5; assign N to the rest.

// known answers, use as guide
molecule | label
CCCOC(=O)N[C@@H](CNC(=O)c1ccc(OCCNC2=NCCCN2)cc1O)C(=O)O | Y
O=C(NCCOc1ccc(C(=O)NC[C@H](NC(=O)OCc2ccccc2)C(=O)O)c(O)c1)NCc1ccc(OC(F)(F)F)cc1 | N
CC(C)(C)COC(=O)N[C@@H](CNC(=O)c1ccc(OCCNC2=NCCCCC2)cc1O)C(=O)O | Y
O=C(NCCc1ccccc1)N[C@@H](CNC(=O)c1ccc(OCCNC2=NCCN2)cc1O)C(=O)O | Y
CCCCCCOC(=O)N[C@@H](CNC(=O)c1ccc(OCCNc2ncccn2)cc1O)C(=O)O | N

Does the molecule `O=C(Nc1ccc(Cl)cc1)N[C@@H](CNC(=O)c1ccc(OCCNC2=NCCCN2)cc1O)C(=O)O` have recorded pIC50 that is 5 or more?
Y

Does the molecule CCOC(=O)CC(NC(=O)c1ccc(OCCNC(=N)N)cc1O)c1ccccc1 (stereo not shown) [Example 279, hydrochloride] have recorded pIC50 that is 5 or more?
Y
